The origin of these recorded values is patent US20240360242A1.

kon reference
Target: T1, recombinant human TROP2 extracellular domain (aa 1-274) comprising His tag (human, UniProt P09758 27-274)
T1 construct: Used here for all assays on recombinant human TROP2 (ELISA, immunoblot, SPR, crystal), although only some of them name the catalogue number; also called human recombinant TROP2; recombinant human TROP2 protein; not shown: His tag
T1 sequence: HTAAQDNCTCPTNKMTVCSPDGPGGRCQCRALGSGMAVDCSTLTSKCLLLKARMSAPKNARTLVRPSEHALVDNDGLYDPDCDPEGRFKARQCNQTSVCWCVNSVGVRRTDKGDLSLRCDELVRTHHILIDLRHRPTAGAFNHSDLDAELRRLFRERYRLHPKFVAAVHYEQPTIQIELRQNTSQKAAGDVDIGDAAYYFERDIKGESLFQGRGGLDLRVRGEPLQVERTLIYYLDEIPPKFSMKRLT
Test: SPR
# value in M⁻¹ s⁻¹; strip the unit string

Before answering, review these 3 worked examples.
Exam item: So what's the measured kon for this one? KD005 (antibody, human IgG1, V domains shown, also called anti-TROP2 sdAb KD005) VH: QVQLQESGGGLVEAGGSLRLSCAASGFTFSGSDMSWVRQAPGKGPEWVSYITSGGTTYYPDSVKGRFTISRDNAKNTLYLQMNSLKPDDTALYRCAKSRLTDSHYVEDAWGQGTQVTVSS
Marked response: 1.59e+06

Exam item: So what's the measured kon for this one? KD004 (antibody, human IgG1, V domains shown, also called anti-TROP2 sdAb KD004) VH: QVQLQESGGGLVQPGRSLRLSCAASGFTFSGSDMSWVRQAPGKGPEWVSYITGSGTTYYPDSVKGRFTTSRDNAKNMLYLQMNSLKPDDTALYRCAKARLTDSHYVEDAWGQGTQVTVSS
Marked response: 1.51e+06

Exam item: So what's the measured kon for this one? KD001 (antibody, human IgG1, V domains shown, also called anti-TROP2 sdAb KD001) VH: QVQLQESGGGMVHPGGSLRLSCAASGFTFSGSDMSWVRQAPGKGPEWVSYITSGGTTYYPDSVKGRFTISRDNAKNTLYLQMNSLTPDDTALYRCAKARLTDSHYVEDAWGQGTQVTVSS
Marked response: 913000

Continuing:
Exam item: So what's the measured kon for this one? KD003 (antibody, human IgG1, V domains shown, also called anti-TROP2 sdAb KD003) VH: QVQLQESGGGMVQPGGSLRLSCAASGFTFSNYDMSWVRQAPGKGPEWVSYINAGGSNTDYPDSVKGRFTISRDNAKNMLYLLMNNLKPEDTALYRCARAKLTDTHYVEDYWGQGTQVTVSS
Marked response: 1.06e+06

Exam item: So what's the measured kon for this one? KD002 (antibody, human IgG1, V domains shown, also called anti-TROP2 sdAb KD002) VH: QVQLQESGGGMVQVGGSLRLSCAASGFPFSSADMSWVRQAPGKGPEWVSYINADGSKTYYPDSVKGRFTISRDNAKNTLYLLMNNLKPEDTALYRCARAKLTDTHYVEDYWGQGTQVTVSS
Marked response: 1.32e+06
